Where do these numbers come from? They come from the supplement of paper PMC9942255.

# Tested on: Bacillus subtilis DB104 (SP-AmyQ fusion secretion)
# experiment: AmyQ secretion efficiency, weighted average sort bin (1 = best secretion, 10 = worst) (bin number (weighted average, 1-10)); higher = lower secretion efficiency
attributeMeasured: AmyQ secretion efficiency

polymerSequence: MLCVMMLLFSAIASFPVSAQYKDQ
attributeMeasured: AmyQ secretion efficiency
experimentalValue: 6.57
//
polymerSequence: MRKKRVKRCVMAASLTLGSLLPAGYASAKED
attributeMeasured: AmyQ secretion efficiency
experimentalValue: 3.34
//
polymerSequence: MNLRKILLSSALSLGMLVVSAAPVLATSS
attributeMeasured: AmyQ secretion efficiency
experimentalValue: 1.4
//
polymerSequence: MKKRLIAPMLLSAASLAFFAMSGSAQHAAY
attributeMeasured: AmyQ secretion efficiency
experimentalValue: 7.18
//
polymerSequence: MKRLFMKASLVLFAVVFVFAVKGAPAKAAKR
attributeMeasured: AmyQ secretion efficiency
experimentalValue: 3.29
//
polymerSequence: MLTKRLLTIYIMLLGLIAWFPGAIQAEEK
attributeMeasured: AmyQ secretion efficiency
experimentalValue: 2.08
//
polymerSequence: MKIRKQRGYTGLSFGMLISAVPALAAGT
attributeMeasured: AmyQ secretion efficiency
experimentalValue: 6.92
//
polymerSequence: MLKKIALTLCPAIVGSLLFFTRKKASAHVS
attributeMeasured: AmyQ secretion efficiency
experimentalValue: 7.46
//
polymerSequence: MRPVFPLILSAVLFLSCFRGARQTKASASKR
attributeMeasured: AmyQ secretion efficiency
experimentalValue: 7.54
//
polymerSequence: MKKLRKKKIIGLLTVSIASPSFAAEK
attributeMeasured: AmyQ secretion efficiency
experimentalValue: 7.35
//
polymerSequence: MKKWMITIAMLILAGIALFVFISPPKSHKT
attributeMeasured: AmyQ secretion efficiency
experimentalValue: 5.84
//
polymerSequence: MKRLCLWFTVFSLFLVLLPGKALGARR
attributeMeasured: AmyQ secretion efficiency
experimentalValue: 2.37
//
polymerSequence: MKRIRIPMTLALGAALTIAPLSFASGEEN
attributeMeasured: AmyQ secretion efficiency
experimentalValue: 3.92
//
polymerSequence: MKNMSCKLVVSVTLFFSFLTIGPLAHQQNS
attributeMeasured: AmyQ secretion efficiency
experimentalValue: 5.78
//
polymerSequence: MKRLCKKRKVFSLFLVLLPGKALGAVD
attributeMeasured: AmyQ secretion efficiency
experimentalValue: 7.25
